System: Hepatitis C virus
Experiment: Inhibition of Hepatitis C virus genotype 1b NS3/4A protease A156S mutant
Set-up: species or system Hepatitis C virus subtype 1b
Assignment: determine reported pEC50 for the given compounds.
Numbers only, as −log10 of the molar value.

>  <compound>
CCC[C@H](NC(=O)[C@@H]1[C@H]2CCC[C@H]2CN1C(=O)[C@@H](NC(=O)[C@@H](NC(=O)c1cnccn1)C1CCCCC1)C(C)(C)C)C(=O)C(=O)NC1CC1

>  <experimental_target>
Hepatitis C virus

>  <measured>
5.66

$$$$

Below: the item to evaluate.
Notebook entry, Hepatitis C virus assay: pEC50 of CCCC(NC(=O)C1N(C(=O)[C@@H](NC(=O)[C@@H](NC(=O)c2cnccn2)C2CCCCC2)C(C)(C)C)CC12CCCCC2)C(=O)C(=O)NC1CC1 (stereo partly drawn) = ?
4.37
